- TEST_PROTOCOL: in vitro dissolution of matched cholesterol gallstones from cholecystectomy patients, 30 ml polyethylene bag model gallbladder, 180 ml/min (Table II)
- Parameters: species or system human
- SETUP_CONDITIONS: five stones per set, mean stone weight 79-340 mg, 150 ml solvent
This section presents compounds with their documented Mean Time (complete dissolution) values.
Numbers only; they are read as min.

Some solved cases for reference:
CC(=O)OC(C)C [isopropyl acetate] :: 26
CCOC(=O)C(C)C [ethyl isobutyrate] :: 33
COC(C)(C)C [methyl t-butyl ether] :: 19
CCCOC(C)=O [n-propyl acetate] :: 35

Query string: Complete the entry with Mean Time (complete dissolution) for CCOC(=O)CC [ethyl propionate]
Result string: 14
